// provenance: PubChem BioAssay (NCI)

Tested on: K-562 leukemia
ASSAY_NOTES: NCI-60 one-dose screen, 48 h
CONDITION_INFO: 10 µM unless noted
This is part of a sample that, as a whole, favours compounds with a hit. Of some 83,000 tested, about 20% had one in any assay. The source made the active and inactive calls. Rule for the calls: active = growth percent below 10; inactive = the rest.
Mark one answer only. Choices: 1 (yes) (active), 0 (no) (inactive)

Q: GET /call?item= Cc1nc2sc(C(=O)Nc3ccccc3)c(N)c2cc1C(O)c1ccccc1 (centres undefined) returns the recorded outcome of this test.
A: 1 (yes)

Q: Please let me know the test result on file for c1ccc(-c2nc(N3CCNCC3)c3oc(-c4ccccc4)nc3n2)cc1 .
A: 1 (yes)

Q: Record lookup: outcome of this test for O=C(/C=C/c1ccc(Cl)cc1)c1ccc(Nc2ccnc3cc(Cl)ccc23)cc1 ?
A: 0 (no)

More entries:
Q: GET /call?item= COc1cc(-c2ccc(-c3ccc(C(=N)N)s3)s2)cc(OC)c1OC returns the recorded outcome of this test.
A: 1 (yes)

Q: Could you please tell me the result logged for Cn1cc(-c2ccc3occ(-c4cccc(-c5ccncc5)c4)c3n2)cn1 in this assay?
A: 1 (yes)

Q: Please let me know the test result on file for CCN1C(=O)N(CC)C2C1NN=c1s/c(=C\c3ccc([N+](=O)[O-])cc3)c(=O)n12 (centres undefined) .
A: 1 (yes)

Q: // return assay outcome for N=C(N)c1ccc(-c2ccc(-c3ccc(Cl)cc3Cl)s2)nc1
A: 1 (yes)

Q: // return assay outcome for CS(=O)(=O)c1ccc(/C(=N/NC(N)=S)c2ccc(F)cc2)cc1
A: 0 (no)

Q: Could you check what this test reported for CS(=O)(=O)Nc1cc(-c2ccc3ncnc(Nc4cccc(Cl)c4)c3c2)cnc1Cl ?
A: 0 (no)

Q: Dear all, I need the recorded test outcome for Cc1ccc(S(=O)(=O)c2nc(-c3ccccc3)oc2S(C)=O)cc1 (centres undefined) , thank you.
A: 1 (yes)

Q: Outcome? COc1cc(C2=Nc3c(N)nc(N)nc3NC(c3cccc(Nc4ccnc5cc(C(F)(F)F)ccc45)c3)C2)cc(OC)c1OC (centres undefined)
A: 0 (no)

Q: Hi, do you know how Cn1ccnc1C(=O)/C=C/c1ccc(C(=O)Nc2c(F)c(F)c(F)c(F)c2F)cc1 came out in this test?
A: 1 (yes)

Q: Assay result, entry Oc1cccc(-c2nc(-c3n[nH]c(=S)n3-c3ccccc3)cc3c2[nH]c2ccccc23)c1 — outcome?
A: 0 (no)

Q: Which result was noted for this compound in the test: C=CCNc1nc(O)c(/C=C2\C=Nc3ncccc32)s1
A: 0 (no)

Q: State the result this test recorded for COc1ccc(-c2nc(SCCC(C)C)nc(N/N=C(/C)c3ccc(N)cc3)c2C#N)cc1 .
A: 0 (no)

Q: For CCOC(=O)CSc1nc2sc3c(c2c(=O)n1-c1ccccc1)CCCCC3 , which call appears in the assay record?
A: 0 (no)

Q: Recorded call for N#CC1=C(N)Oc2c(ccc3ccccc23)C1c1cc2ccccc2n2nnnc12 (centres undefined) ?
A: 1 (yes)

Q: Per the assay record, what outcome was assigned to CCCCCCCCCCCCCC[n+]1ccc2c(C)c3c(c(C)c2c1)c1cc(O)ccc1n3CC ?
A: 1 (yes)

Q: Hey, what did the test say about C=C1C(=O)O[C@H]2[C@H]1CC/C(COC(=O)NCc1ccc(Cn3c(=O)sn(CCCC)c3=O)cc1)=C\CC[C@@]1(C)O[C@@H]21 ?
A: 1 (yes)

Q: Please indicate how the test categorized C#CCOc1cccc(-c2ncnc3cc(NC(=O)CCl)ccc23)c1 .
A: 1 (yes)
